Assay: Mouse blood and tissue PK (LC/MS-MS)
Assay type: in vivo
Conditions: mouse, tumor, oral, 1 mg/kg, NCI-H441 xenograft tumor, study NCI-H441#10, 1 mg/kg, 8h; read-out: RMC-6236 (nM) Tumor
reported_endpoint: concentration at 8 h (nM)

>>> result("CCn1c(-c2cc(N3CCN(C)CC3)cnc2[C@H](C)OC)c2c3cc(ccc31)-c1csc(n1)C[C@H](NC(=O)[C@H]1C[C@@H]1C)C(=O)N1CCC[C@H](N1)C(=O)OCC(C)(C)C2")
129

###

Experiment: Mouse blood and tissue PK (LC/MS-MS)
Type: in vivo
Conditions: mouse, tumor, oral, 10 mg/kg, NCI-H441 xenograft tumor, study NCI-H441#10, 10 mg/kg, 24h; read-out: RMC-6236 (nM) Tumor
reported_endpoint: concentration at 24 h

>>> result("CCn1c(-c2cc(N3CCN(C)CC3)cnc2[C@H](C)OC)c2c3cc(ccc31)-c1csc(n1)C[C@H](NC(=O)[C@H]1C[C@@H]1C)C(=O)N1CCC[C@H](N1)C(=O)OCC(C)(C)C2")
"541 nM"
